Listed here: items and their measured emission maximum.
Assay: solvent given as SMILES
Details: in CS(C)=O
Endpoint Name: emission maximum (nm)

* O=C(N/N=C/c1ccccc1O)c1cccc2ccccc12 | 336
* CN(C)c1ccc(-c2ccc(-c3cc(N4CCCCC4)c(C#N)c4c3-c3ccccc3CC4)s2)cc1 | 570
* COc1ccc(-c2nc3c(c4c2-c2ccccc2CC4)-c2ccccc2CC3)cc1 | 415
* CN1/C(=C/C=C(/C=C/C2=[N+](C)c3ccccc3C2(C)C)c2cc(F)cc(F)c2)C(C)(C)c2ccccc21 | 663
* COc1ccc(C2=[N+]3C(=Nc4c(C)cc(-c5ccc(OC)cc5)n4[B-]3(F)F)C(C)=C2)cc1 | 692
* Cc1ccc(N/C=C/C=[NH+]c2ccc(C)cc2)cc1 | 491
* N#Cc1c[nH]c2ccccc12 | 316
* CC(=O)Nc1ccc(S(=O)(=O)O)c(/N=N/c2c(O)c3ccccc3n(C)c2=O)c1 | 526
* O=C1C=Cc2cc3ccccc3c(=O)n21 | 420
* Cn1c(=O)c(/N=N/c2ccc(S(=O)(=O)O)c3ccccc23)c(O)c2ccccc21 | 571
* COc1cc(/C=C/C(=O)CC(=O)/C=C/c2ccc(O)c(OC)c2)ccc1O | 549
* CCOC(=O)c1ccccc1-c1c2ccc(=O)cc-2oc2cc(OC(=O)[C@H](CSCc3ccc(C)cc3)NC(=O)OC(C)(C)C)ccc12 | 549
* CCN(CC)c1ccc2cc(/C=C/C3=C4CC/C(=C\c5cc6ccc(N(CC)CC)cc6oc5=O)C4=[O+][B-](F)(F)O3)c(=O)oc2c1 | 780
* CCN(CC)c1ccc2cc(/C=C(\C#N)c3nc4ccccc4s3)c(=O)oc2c1 | 613
* BrC1=CN2C[n+]3cc(Br)cc(Br)c3N=C2C(Br)=C1 | 494
* CN1/C(=C/C=C(/C=C/c2sc3ccccc3[n+]2C)c2cccc(C(F)(F)F)c2)Sc2ccccc21 | 665
* Cc1cccn2c1cc1c3ccccc3nc(-c3ccco3)c12 | 502
* N#Cc1c(N2CCCCC2)cc(-c2ccc(O)cc2)c2c1-c1cccc3cccc-2c13 | 580
* COc1ccc(-c2nc3c(c4c2-c2ccc(C#N)cc2CC4)-c2ccc(C#N)cc2CC3)cc1 | 435
* CCCCOc1ccc(-c2oc3c(-c4ccc(OCCCC)cc4)c4n(c3c2-c2ccc(OCCCC)cc2)[B-](F)(F)[N+]2=Cc3c(-c5ccc(OCCCC)cc5)c5oc(-c6ccc(OCCCC)cc6)c(-c6ccc(OCCCC)cc6)c5n3[B-](F)(F)[N+]2=C4)cc1 | 676
* CCc1ccc(/C=C/c2ccc(-c3nnc(-c4ccc(-c5cc6ccccc6s5)cc4)o3)cc2)cc1 | 433
* CCCCN1\C(=C/C=C/C=C/C2=[N+](CCCC)c3ccc4ccccc4c3C2(C)C)C(C)(C)c2c1ccc1ccccc21 | 709
* Cc1ccccc1/C(C#N)=C/c1ccc(N(C)C)cc1 | 453
* C(=C\c1nc(/C=C/c2ccc(N(c3ccccc3)c3ccccc3)cc2)cc(/C=C/c2ccc(N(c3ccccc3)c3ccccc3)cc2)n1)/c1ccccc1 | 596
* COC(=O)c1cc(=O)n(C)c2cc(-c3cc4c5c(c3)CCCN5CCC4)sc12 | 508
* CCN(CC)c1ccc(-c2nc3c(c4c2-c2ccc(C#N)cc2CC4)-c2ccc(C#N)cc2CC3)cc1 | 541
* O=C1c2ccc3c4ccc5c6c(ccc(c7ccc(c2c37)C(=O)N1c1ccncc1)c64)C(=O)N(c1ccncc1)C5=O | 580
